PROTOCOL_SUMMARY: NIH3T3 cell viability loss – ATP luminescence, mouse fibroblasts, counter-screen, dose response (AID 2010);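 note: cells exposed to compound for about 90 hours before reading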
Type: functional, cell-based
Calls of active or inactive are those of the source. Cut-off read from the data, not from the text of the source: actives have a measured EC50 and inactives only a lower limit.
Listed compounds paired with reported EC50

COMPOUND	EC50
C/C(=N\NC(=O)c1ccccc1Cl)c1ccccn1	5.56 µM (active)

I have this compound here, c1ccc(Nc2ccc3c4c(cccc24)CC3)cc1 , and I need its recorded EC50.
59.5 µM (active)

O=C(NCCCN1CCCC1)C1CCN(C(=O)c2cc3sccc3n2Cc2ccc(F)cc2)CC1 ?
> 60 µM (not active)

CC1CCC(C(C)C)C(OC(=O)Cn2c(-c3ccc(Br)cc3)[n+](C)c3ccccc32)C1 (stereo not given) ?
> 60 µM (not active)

CCc1ccc(-c2nc(CN3CCCC(C(=O)NCCc4ccc(OC)c(OC)c4)C3)c(C)o2)cc1 (stereo not given) ?
> 60 µM (not active)

Sourced from ChEMBL document CHEMBL1201862
